molecular target: human κ (CHO-KOR) opioid receptor (Homo sapiens, UniProt P41145); construct: expressed in transfected cells; assay: Stimulation of [35S]GTPγS binding, KOR; type: biochemical; conditions: [35S]GTPγS maximal stimulation compared with 10 μM standard U-69,593
Sequence (P41145 whole entry): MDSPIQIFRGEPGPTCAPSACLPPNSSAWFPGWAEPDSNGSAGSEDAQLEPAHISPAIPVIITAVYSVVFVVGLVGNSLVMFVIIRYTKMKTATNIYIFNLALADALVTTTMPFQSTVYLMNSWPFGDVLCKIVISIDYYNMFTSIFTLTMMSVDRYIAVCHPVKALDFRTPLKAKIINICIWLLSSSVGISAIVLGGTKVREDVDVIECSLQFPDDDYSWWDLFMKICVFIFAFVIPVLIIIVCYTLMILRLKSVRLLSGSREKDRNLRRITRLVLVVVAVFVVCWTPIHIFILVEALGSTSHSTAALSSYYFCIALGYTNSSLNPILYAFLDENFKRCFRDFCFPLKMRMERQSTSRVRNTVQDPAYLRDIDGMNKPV
Overview of reported Emax across a group of compounds:
Please reply with the bare figure in % and do not write the unit itself.

Example entries begin here.
INSERT INTO results (compound, experimentaltarget, valuemeasured) VALUES
  ('Cc1cc(O)cc(C)c1C[C@H](N)C(=O)N[C@@H]1CCNc2c(-c3ccoc3)cc(Cc3ccccc3)cc21 [Compound 1094]', 'human κ (CHO-KOR) opioid receptor (Homo sapiens, UniProt P41145)', 29),
  ('Cc1cc(O)cc(C)c1C[C@H](N)C(=O)N[C@@H]1CCNc2ccc(Cc3c(Cl)cccc3Cl)cc21 [Compound 1032]', 'human κ (CHO-KOR) opioid receptor (Homo sapiens, UniProt P41145)', 0),
  ('Cc1ccc(Cc2ccc3c(c2)[C@@H](NC(=O)[C@@H](N)Cc2c(C)cc(O)cc2C)CCN3)cc1 [Compound 1008]', 'human κ (CHO-KOR) opioid receptor (Homo sapiens, UniProt P41145)', 0),
  ('Cc1cc(O)cc(C)c1C[C@H](N)C(=O)N[C@@H]1CCNc2c(CN3CCNCC3)cc(Cc3ccccc3)cc21 [Compound 1131]', 'human κ (CHO-KOR) opioid receptor (Homo sapiens, UniProt P41145)', 18),
  ('Cc1cc(O)cc(C)c1C[C@H](N)C(=O)N(C)[C@@H]1CCNc2ccc(Cc3ccccc3)cc21 [Compound 1001]', 'human κ (CHO-KOR) opioid receptor (Homo sapiens, UniProt P41145)', 3.9);

INPUT: State, in one line, measured Emax of Cc1cc(O)cc(C)c1C[C@H](N)C(=O)N[C@@H]1CCCc2ccc(-c3cccc4ccccc34)cc21 [Compound 1115]
OUTPUT: 3.82

INPUT: State, in one line, measured Emax of Cc1cc(O)cc(C)c1C[C@H](N)C(=O)NC1CCc2ccc(Cc3ccccc3)cc21 (stereo partly shown) [Compound 1114]
OUTPUT: 3.7

* * *

molecular target: rat μ (C6-MOR) opioid receptor (Rattus norvegicus, UniProt P33535); assay: Stimulation of [35S]GTPγS binding, MOR; conditions: [35S]GTPγS binding, C6-MOR membranes; mean ± standard error
Sequence (P33535 whole entry): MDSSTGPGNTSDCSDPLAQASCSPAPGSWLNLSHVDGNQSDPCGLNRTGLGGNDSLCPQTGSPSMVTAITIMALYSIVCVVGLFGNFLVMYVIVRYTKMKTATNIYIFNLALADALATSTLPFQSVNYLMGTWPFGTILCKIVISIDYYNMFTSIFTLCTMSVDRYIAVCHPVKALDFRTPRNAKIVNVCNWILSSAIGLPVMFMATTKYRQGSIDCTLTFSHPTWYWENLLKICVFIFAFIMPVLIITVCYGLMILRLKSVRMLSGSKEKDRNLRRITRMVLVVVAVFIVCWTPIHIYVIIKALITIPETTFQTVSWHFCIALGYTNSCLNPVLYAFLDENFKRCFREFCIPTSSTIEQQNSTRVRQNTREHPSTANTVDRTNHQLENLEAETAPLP
Overview of reported pEC50 across a group of compounds:
# pEC50 is unitless: minus log10 of the molar concentration; print number only

INSERT INTO measurements (linenotation, valuemeasured) VALUES
  ('CCCC(=O)N1CC[C@@H](NC(=O)[C@@H](N)Cc2c(C)cc(O)cc2C)c2cc(CC3Cc4ccccc4C3)ccc21', 8.39),
  ('Cc1cc(O)cc(C)c1C[C@H](N)C(=O)N[C@@H]1CCNc2c(-c3cc4ccccc4o3)cc(Cc3ccccc3)cc21', 7.81);

INPUT: Print rat μ (C6-MOR) opioid receptor (Rattus norvegicus, UniProt P33535) pEC50 for Cc1cc(O)cc(C)c1C[C@H](N)C(=O)N[C@@H]1CCNc2ccc(CN3CCc4cccc(C(F)(F)F)c4C3)cc21 .
OUTPUT: 8.05

* * *

target: rat δ (C6-DOR) opioid receptor (Rattus norvegicus); construct: expressed in transfected cells; assay: Stimulation of [35S]GTPγS binding, DOR; format: biochemical; conditions: [35S]GTPγS maximal stimulation compared with 10 μM standard DPDPE
Sequence (P33533 whole entry): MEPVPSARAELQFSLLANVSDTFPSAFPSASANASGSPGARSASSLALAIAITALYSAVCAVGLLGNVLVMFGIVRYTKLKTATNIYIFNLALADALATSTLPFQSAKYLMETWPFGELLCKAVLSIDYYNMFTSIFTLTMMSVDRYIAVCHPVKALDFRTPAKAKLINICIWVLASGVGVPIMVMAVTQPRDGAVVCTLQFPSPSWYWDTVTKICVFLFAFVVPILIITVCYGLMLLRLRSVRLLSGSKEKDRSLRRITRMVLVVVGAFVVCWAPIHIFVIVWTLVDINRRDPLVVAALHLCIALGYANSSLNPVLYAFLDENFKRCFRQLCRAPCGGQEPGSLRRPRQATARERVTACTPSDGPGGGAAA
Label scheme for Emax: lower than 20% is false, 20% and above is true.

Solved cases below.
INSERT INTO measurements (compound, experimentaltarget, labelvalue) VALUES
  ('Cc1cc(O)cc(C)c1C[C@H](N)C(=O)NC1CCNc2ccc(Oc3ccccc3)cc21 (stereo partly drawn)', 'rat δ (C6-DOR) opioid receptor (Rattus norvegicus)', 'false'),
  ('COc1cc(Cc2ccccc2)cc2c1N(C(C)=O)CC[C@H]2NC(=O)[C@@H](N)Cc1c(C)cc(O)cc1C', 'rat δ (C6-DOR) opioid receptor (Rattus norvegicus)', 'true'),
  ('Cc1cc(O)cc(C)c1C[C@H](N)C(=O)N[C@@H]1CCNc2ccc(Oc3ccc(Cl)cc3)cc21', 'rat δ (C6-DOR) opioid receptor (Rattus norvegicus)', 'false');

INPUT: In plain terms: is recorded Emax at least 20% for Cc1cc(O)cc(C)c1C[C@H](N)C(=O)N[C@H]1CCOc2ccc(Cc3ccccc3)cc21 ?
OUTPUT: false

INPUT: In plain terms: is recorded Emax at least 20% for CC(=O)N1CC[C@@H](NC(=O)[C@@H](N)Cc2c(C)cc(O)cc2C)c2cc(Oc3ccc(Cl)cc3)ccc21 ?
OUTPUT: false

INPUT: In plain terms: is recorded Emax at least 20% for Cc1cc(O)cc(C)c1C[C@H](N)C(=O)N[C@@H]1CCNc2c(CN3CCOCC3)cc(Cc3ccccc3)cc21 ?
OUTPUT: true

INPUT: In plain terms: is recorded Emax at least 20% for Cc1cc(C(N)=O)cc(C)c1C[C@H](N)C(=O)N[C@@H]1CCNc2ccc(Cc3ccccc3)cc21 ?
OUTPUT: true

INPUT: In plain terms: is recorded Emax at least 20% for Cc1cc(O)cc(C)c1C[C@H](N)C(=O)N[C@@H]1CCNc2c(Br)cc(Cc3ccccc3)cc21 ?
OUTPUT: true

INPUT: In plain terms: is recorded Emax at least 20% for Cc1cc(O)cc(C)c1C[C@H](N)C(=O)N[C@H]1CCN(C)c2ccc(Cc3ccccc3)cc21 ?
OUTPUT: false

INPUT: In plain terms: is recorded Emax at least 20% for Cc1cc(O)cc(C)c1C[C@H](N)C(=O)N[C@@H]1CCOc2ccc(Cc3ccccc3)cc21 ?
OUTPUT: false

INPUT: In plain terms: is recorded Emax at least 20% for Cc1cc(O)cc(C)c1C[C@H](N)C(=O)N[C@@H]1CCNc2ccc(CC3Cc4ccc(O)cc4C3)cc21 (stereo partly drawn) ?
OUTPUT: false

INPUT: In plain terms: is recorded Emax at least 20% for CCCCc1cc(Cc2ccccc2)cc2c1NCC[C@H]2NC(=O)[C@@H](N)Cc1c(C)cc(O)cc1C ?
OUTPUT: true

INPUT: In plain terms: is recorded Emax at least 20% for Cc1ccc(Cc2ccc3c(c2)[C@H](NC(=O)[C@@H](N)Cc2c(C)cc(O)cc2C)CCN3)cc1 ?
OUTPUT: false

INPUT: In plain terms: is recorded Emax at least 20% for Cc1cc(O)cc(C)c1C[C@H](N)C(=O)N[C@H]1c2cc(Cc3ccccc3)ccc2NC[C@H]1C ?
OUTPUT: true

* * *

target: human κ (CHO-KOR) opioid receptor (Homo sapiens)
measure: pKi
# pKi is unitless: minus log10 of the molar concentration; print number only

INSERT INTO assay_data (molecule, valuemeasured) VALUES
  ('Cc1cc(O)cc(C)c1C[C@H](N)C(=O)N[C@@H]1CCNc2ccc(CC3Cc4cccc(O)c4C3)cc21 (stereo partly shown) [Compound 1036]', 7.69),
  ('Cc1cc(O)cc(C)c1C[C@H](N)C(=O)N[C@@H]1CCNc2ccc(CN3CCC4(CCCCC4)CC3)cc21 [Compound 1060]', 8.61),
  ('Cc1cc(O)cc(C)c1C[C@H](N)C(=O)NC1CCc2ccc(Cc3ccccc3)cc21 (stereo partly shown) [Compound 1114]', 6.84);

INPUT: Print human κ (CHO-KOR) opioid receptor (Homo sapiens) pKi for Cc1cc(O)cc(C)c1C[C@H](N)C(=O)N[C@H]1CCOc2ccc(Cc3ccccc3)cc21 [Compound 1112] .
OUTPUT: 6.45

* * *

biological target: rat μ (C6-MOR) opioid receptor (Rattus norvegicus); construct: expressed in transfected cells; test: Stimulation of [35S]GTPγS binding, MOR; format: biochemical; conditions: [35S]GTPγS maximal stimulation compared with 10 μM standard DAMGO
Overview of reported Emax across a group of compounds:
Please reply with the bare figure in % and do not write the unit itself.

Example entries begin here.
INSERT INTO results (compound, valuemeasured) VALUES
  ('Cc1cc(O)cc(C)c1C[C@H](N)C(=O)N[C@@H]1CCNc2ccc(CC3Cc4cccc(O)c4C3)cc21 (some centres unmarked)', 69.1),
  ('Cc1cc(O)cc(C)c1C[C@H](N)C(=O)N(C)[C@@H]1CCNc2ccc(Cc3ccccc3)cc21', 80.6),
  ('Cc1cc(O)cc(C)c1C[C@H](N)C(=O)N(C)[C@H]1CCNc2ccc(Cc3ccccc3)cc21', 65.6);

INPUT: State, in one line, measured Emax of CC(=O)N1CC[C@@H](NC(=O)[C@@H](N)Cc2c(C)cc(O)cc2C)c2cc(Oc3ccccc3)ccc21
OUTPUT: 76.6

INPUT: State, in one line, measured Emax of COc1cc(Cc2ccccc2)cc2c1N(C(C)=O)CC[C@H]2NC(=O)[C@@H](N)Cc1c(C)cc(O)cc1C
OUTPUT: 95.8

INPUT: State, in one line, measured Emax of Cc1cc(O)cc(C)c1C[C@H](N)C(=O)N[C@H]1CCNc2ccc(Cc3ccc(F)cc3)cc21
OUTPUT: 58

INPUT: State, in one line, measured Emax of Cc1cc(O)cc(C)c1C[C@H](N)C(=O)N[C@H]1CCOc2ccc(Cc3ccccc3)cc21
OUTPUT: 7.18

INPUT: State, in one line, measured Emax of CC(=O)N1CC[C@@H](NC(=O)[C@@H](N)Cc2c(C)cc(O)cc2C)c2cc(Cc3ccccc3)cc(Cc3ccccc3)c21
OUTPUT: 75.1
